- Assay Target: STAT3 protein (Homo sapiens, UniProt P40763)
- Sequence (P40763 whole entry): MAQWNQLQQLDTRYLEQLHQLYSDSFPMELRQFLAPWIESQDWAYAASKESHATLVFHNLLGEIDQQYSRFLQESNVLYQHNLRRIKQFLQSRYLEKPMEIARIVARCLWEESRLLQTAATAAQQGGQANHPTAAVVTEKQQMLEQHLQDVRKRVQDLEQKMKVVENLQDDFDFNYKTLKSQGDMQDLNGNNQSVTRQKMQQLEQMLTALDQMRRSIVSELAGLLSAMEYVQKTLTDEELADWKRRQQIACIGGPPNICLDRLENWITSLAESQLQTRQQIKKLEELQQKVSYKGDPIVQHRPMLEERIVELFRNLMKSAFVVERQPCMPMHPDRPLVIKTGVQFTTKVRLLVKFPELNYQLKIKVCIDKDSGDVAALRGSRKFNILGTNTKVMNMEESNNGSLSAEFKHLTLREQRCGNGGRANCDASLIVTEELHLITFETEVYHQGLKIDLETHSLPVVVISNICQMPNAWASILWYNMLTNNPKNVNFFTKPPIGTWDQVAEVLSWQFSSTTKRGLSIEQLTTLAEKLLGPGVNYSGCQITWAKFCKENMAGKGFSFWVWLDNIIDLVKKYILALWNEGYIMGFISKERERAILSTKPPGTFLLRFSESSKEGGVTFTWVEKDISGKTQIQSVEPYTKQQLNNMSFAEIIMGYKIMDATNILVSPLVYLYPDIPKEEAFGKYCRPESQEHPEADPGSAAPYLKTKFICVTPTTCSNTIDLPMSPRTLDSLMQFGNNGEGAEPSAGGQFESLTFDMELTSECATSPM
- Measurement Description: Binding activity to STAT3 protein by microscale thermophoresis (MST)
- Settings: purified STAT3 recombinant protein
pKd: −log10 of the molar value.
Result Type: pKd

// pKd value for Cn1c(C(=O)N2CCN(Cc3ccc(OCC(F)(F)F)cc3)CC2)cc2ccc(Oc3cnc(-c4nc(-c5cccc(C(F)(F)F)c5)no4)cn3)cc21 : > 9.00

// pKd value for Cn1c(C(=O)N2CCN(Cc3ccc(Cl)cc3)CC2)cc2ccc(Oc3cnc(-c4nc(-c5ccc(C(F)(F)F)cc5)no4)cn3)cc21 : > 7.00

// pKd value for Cc1cccc(CN2CCN(C(=O)c3cc4ccc(Oc5cnc(-c6nc(-c7ccc(C(F)(F)F)cc7)no6)cn5)cc4n3C)CC2)c1 : > 7.00

// pKd value for Cn1c(C(=O)N2CCN(Cc3ccc(OCC(F)(F)F)cc3)CC2)cc2ccc(Oc3cnc(-c4nc(-c5ccc(Br)cc5)no4)cn3)cc21 : > 8.00

Further cases:
// pKd value for Cn1c(C(=O)N2CCN(Cc3ccc(OCC(F)(F)F)cc3)CC2)cc2ccc(Oc3cnc(-c4nc(-c5cccc(F)c5)no4)cn3)cc21 : > 8.00

// pKd value for Cn1c(C(=O)N2CCN(Cc3ccc(OCC(F)(F)F)cc3)CC2)cc2ccc(Oc3cnc(-c4nc(-c5ccc(Cl)cc5)no4)cn3)cc21 : > 8.00

* * *

# pKd per entry
- Assay Target: STAT3 protein (Homo sapiens, UniProt P40763)
- Measurement Description: Binding activity to STAT3 protein by microscale thermophoresis (MST)
- Settings: purified STAT3 recombinant protein
pKd: −log10 of the molar value.

Example cases with answers are listed next.
Cn1c(C(=O)N2CCN(Cc3cccc(C(F)(F)F)c3)CC2)cc2ccc(Oc3cnc(-c4nc(-c5ccc(C(F)(F)F)cc5)no4)cn3)cc21 on STAT3 protein (Homo sapiens, UniProt P40763) gives pKd = > 6.00

COc1ccccc1-c1noc(-c2cnc(Oc3ccc4cc(C(=O)N5CCN(Cc6ccc(OCC(F)(F)F)cc6)CC5)n(C)c4c3)cn2)n1 on STAT3 protein (Homo sapiens, UniProt P40763) gives pKd = > 8.00

Further cases:
Cn1c(C(=O)N2CCN(Cc3ccc(OCC(F)(F)F)cc3)CC2)cc2ccc(Oc3cnc(-c4nc(-c5ccccc5C(F)(F)F)no4)cn3)cc21 on STAT3 protein (Homo sapiens, UniProt P40763) gives pKd = > 9.00

* * *

- Tested on: H23
- Measurement Description: Cell proliferation by MTS method, H23
- Type: cell-based
- Settings: Homo sapiens, NCI-H23, Lung Cancer
Result Type: pIC50
Expect pIC50 as a plain number equal to -log10 of the molar concentration.

// pIC50 value for Cn1c(C(=O)N2CCN(Cc3ccc(OCC(F)(F)F)cc3)CC2)cc2ccc(Oc3cnc(-c4nc(-c5ccc(C(F)(F)F)cc5)no4)cn3)cc21 : 8.54

* * *

- System: PC-9
- Measurement Description: Cell proliferation by MTS method, PC-9
- Type: cell-based
- Settings: Homo sapiens, Lung Cancer
Result Type: pIC50
Expect pIC50 as a plain number equal to -log10 of the molar concentration.

// pIC50 value for Cn1c(C(=O)N2CCN(Cc3ccc(OCC(F)(F)F)cc3)CC2)cc2ccc(Oc3cnc(-c4nc(-c5ccc(C(F)(F)F)cc5)no4)cn3)cc21 : 7.67
